assay: reduction of polyQ htt aggregates in cells – imaging, exon1htt(103Q)mCFP cells, high-content imaging, primary screen (AID 483); conditions: exon1htt(103Q)mCFP cell line, aggregate imaging, at 2 µM; measured here: cell count, toxicity;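 further: compound exposure lasted 3 days before fixation; percent of the per-plate median nuclei count of sample wells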
measuredEndpoint: nuclei count (%)
Respond with the bare value in %.

Known nuclei count results, listed for orientation:
1) Cc1ccc(C)c(NC(=O)CSc2nnc(-c3ccccc3)o2)c1 : 89.2
2) CCCn1c(N)c(C(=O)CSc2nnc(Cc3ccccc3)o2)c(=O)n(C)c1=O : 99.8

Fill blank: measured nuclei count of the compound CCN(CCCNS(=O)(=O)c1ccc2c(c1)oc(=O)n2C)c1cccc(C)c1 is ____.
110

Likewise for CCn1c(=O)c(C(=O)NCc2ccc(OC)cc2)c(O)c2ccccc21 ?
101

Likewise for O=C(Nc1nc(-c2ccncc2)cs1)C1COc2ccccc2O1 (stereo unspecified) ?
118

Likewise for CC12CCC(C(=O)N3CCCCC3)(CC1=O)C2(C)C (stereo unspecified) ?
99.5
